Test system: abdominal skin of CD male rats
EXPERIMENTAL_DETAILS: Testing for irritation by single subcutaneous administration to rats
Format: in vivo
Parameters: key: — No inflammation; Amount of Inflammation: * < ** < *** < ****; Amount of Inflammation: * < ** < *** < ****; Amount of Inflammation: * < ** < *** < ****; Amount of Inflammation: * < ** < *** < ****
CONDITIONS: single subcutaneous administration 0.1 ml, 2% in DMSO and saline, one day after administration
PARAMETER_MEASURED: Observation at Administration Site, One day after administration

COMPOUND	OBSERVED
CCC(=O)NCCN1C(=O)C2(CCC2)Oc2cc(C)c(C(=O)N(C(C)C)C3CCCN(C(=O)OC(C)OC(=O)c4ccc(C)cc4)C3)cc21 (stereo not shown) [Example 79]	***
CCC(=O)NCCN1C(=O)C2(CCC2)Oc2cc(C)c(C(=O)N(C(C)C)[C@@H]3CCCN(C(=O)O[C@H](C)OC(=O)C(C)C)C3)cc21 [Example 82]	**
CCC(=O)NCCN1C(=O)C(C)(C)Oc2cc(C)c(C(=O)N(C(C)C)[C@@H]3CCCN(C(=O)OCc4oc(=O)oc4C)C3)cc21 [Example 2]	—
CCC(=O)NCCN1C(=O)C(C)(C)Oc2cc(C)c(C(=O)N(C(C)C)[C@@H]3CCCN(C(=O)O[C@H](C)OC(=O)C(C)C)C3)cc21 [Example 67]	**

Data provenance is patent US8658639B2.
